- TARGET_OR_SYSTEM: human CGT (Homo sapiens, UniProt Q16880)
- Sequence (Q16880 21-541): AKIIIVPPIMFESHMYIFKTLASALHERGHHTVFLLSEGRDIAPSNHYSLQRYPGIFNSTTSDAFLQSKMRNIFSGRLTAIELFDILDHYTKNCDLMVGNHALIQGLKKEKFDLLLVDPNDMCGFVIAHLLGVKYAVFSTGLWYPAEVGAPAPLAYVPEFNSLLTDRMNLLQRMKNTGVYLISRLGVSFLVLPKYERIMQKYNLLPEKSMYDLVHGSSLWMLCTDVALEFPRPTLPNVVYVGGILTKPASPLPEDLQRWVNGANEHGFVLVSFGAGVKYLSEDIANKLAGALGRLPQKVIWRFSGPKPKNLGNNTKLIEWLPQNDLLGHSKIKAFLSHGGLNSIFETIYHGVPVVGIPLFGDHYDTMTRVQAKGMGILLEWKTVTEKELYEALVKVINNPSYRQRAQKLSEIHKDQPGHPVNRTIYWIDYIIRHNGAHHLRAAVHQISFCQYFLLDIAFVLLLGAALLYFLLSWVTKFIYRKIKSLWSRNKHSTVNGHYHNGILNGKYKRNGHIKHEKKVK
- ASSAY_NAME: Assay 1: CGT Enzymatic Assay (RapidFire/MS/MS, 0.01% Tween 80)
- Type: biochemical
- CONDITION_SET: Table 1, Compounds of Formula (I) and Formula (II); CGT enzymatic assay; read-out: IC50
MEASUREMENT_NAME: IC50

O=c1n(-c2ccc(Br)cc2)c(-c2ccccc2)c(C2CC2)n1-c1ccc(Br)cc1 | < 1 µM

Return reported IC50. Input molecule: CC1N(c2ccc(Br)cc2)C(=O)N(c2ccc(Br)cc2)C1(O)c1cccc(OC(F)(F)F)c1 (stereo not shown) < 1 µM

Return reported IC50. Input molecule: Cc1ccc(C2(O)CN(c3ccc(Br)cc3)C(=O)N2c2ccc(Br)cc2)cc1 (stereo not shown) > 50 µM

Return reported IC50. Input molecule: O=C1N(c2ccc(F)cc2)CC(O)(c2ccccc2)N1c1ccc(F)cc1 (stereo not shown) > 50 µM
